Exercise: for every item that follows, state its recorded protein stability index.
B1: TOR1AIP2 (parent)
chain: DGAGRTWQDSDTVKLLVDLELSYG

- Variants of: B1
- protocol.details: protein stability index of a GFP-peptide fusion (GPS, HEK-293T) (PSI 1-6); higher = more stable;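 also: lentivirally expressed fusions sorted by FACS into six bins by GFP to DsRed ratio, PSI derived from sequencing read proportions per bin multiplied by bin number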
- condition.label: c terminus: a fixed tail appended

Illustrative cases are given below, each with its answer.
1. S22E: 2.33
2. A3C: 2.55
3. G4S: 2.01
4. E20M: 1.68
5. L16Y: 1.82
6. E20K: 1.93
7. G4V: 2.22
8. G4T: 2.05

Could you tell me protein stability index for each of these variants? They are listed below.
1. W7M
2. S22H
3. Y23F

-- reply
1: 2.36; 2: 1.7; 3: 1.03

Could you tell me protein stability index for each of these variants? They are listed below.
1. A3V
2. A3N
3. W7R

-- reply
1: 1.41; 2: 1.73; 3: 3.68

Could you tell me protein stability index for each of these variants? They are listed below.
1. R5A
2. G2Q
3. L16E
4. E20W
5. V17S

-- reply
1: 1.95; 2: 2.69; 3: 3.69; 4: 2.81; 5: 3.21

Could you tell me protein stability index for each of these variants? They are listed below.
1. L16P
2. L19V

-- reply
1: 3.38; 2: 2.27

-- ask Which protein stability index is reported for this variant? G4A
-- reply 1.8

// data source = the supplement of paper PMC10567573
